Target: T1, mouse MAdCAM expressed on cells (mouse, UniProt Q61826 22-405)
T1 construct: whole, on cells
T1 sequence (looked up): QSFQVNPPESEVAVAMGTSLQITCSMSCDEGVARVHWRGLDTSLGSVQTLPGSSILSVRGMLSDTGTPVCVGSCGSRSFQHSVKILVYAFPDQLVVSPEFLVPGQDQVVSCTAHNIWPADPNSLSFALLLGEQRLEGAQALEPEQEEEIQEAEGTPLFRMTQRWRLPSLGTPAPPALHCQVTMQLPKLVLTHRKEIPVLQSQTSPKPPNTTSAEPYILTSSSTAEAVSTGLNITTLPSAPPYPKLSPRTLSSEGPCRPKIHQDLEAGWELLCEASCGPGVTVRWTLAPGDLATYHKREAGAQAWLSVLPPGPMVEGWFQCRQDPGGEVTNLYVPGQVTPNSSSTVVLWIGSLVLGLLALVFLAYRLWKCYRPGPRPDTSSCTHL
Assay: cell binding

binder	binding result
MAdCAM antibody Table 1 clone 66 (scFv) scFv: EVQLLESGGGLVQPGGSLRLSCAASGFTFSSYWMHWVRQAPGKGLEWVAAISYDGKYKDYEDSVKGRFTISRDNSKNTLYLQMNSLRAEDTAVYYCARENKQWLASFDYWGQGTLVTVSSGGGGSGGGGSGGGGSGGGGSDIQMTQSPSSLSASVGDRVTITCQASQDISNFVNWYQQKPGKAPKLLIYAANLRSGVPSRFSGSGSGTDFTLTISSLQPEDFATYYCQQANSFPVTFGPGTKVDIK	binds
MAdCAM antibody Table 1 clone 2 (scFv) scFv: QVQLVQSGAEVKKPGASVKVSCKASGYPFIGYYLHWVRQAPGQGLEWMGIINPSGGSTSYAQKFQGRVTMTRDTSTSTVYMELSSLRSEDTAVYYCAREGRLSYGMDAWGQGTLVTVSSGGGGSGGGGSGGGGSGGGGSDIQMTQSPSSLSASVGDRVTITCRASQSISSYLAWYQQKPGKAPKLLIYGASTLESGVPSRFSGSGSGTDFTLTISSLQPEDFATYYCQQTWGPPFTFGQGTKLEIK	binds

These data points were gathered from patent US20230235004A1.
